System: Oct 3/4
Test: qPCR gene expression analysis in human MSCs
Type: cell-based
Conditions: 250 μM VPA, 500 nM curcumin; compared to beta-actin; up to 2 weeks; FIG. 13
measured property: Oct 3/4 expression increase

COc1cc(/C=C/C(=O)CC(=O)/C=C/c2ccc(O)c(OC)c2)ccc1O
about 20 fold
CCCC(CCC)C(=O)O
about 20 fold

* * *

Tested on: MSCs
Assay: Cell-based proliferation assay (Presto Blue)
Settings: Homo sapiens, 120 h, increasing VPA in 200 μM lithium; MSCs; 5 day exposure; FIG. 10; read-out: EC50, proliferation
measured property: pEC50
pEC50 here: minus log base 10 of the concentration, concentration in moles per litre.

Prompt: Entry CCCC(CCC)C(=O)O [VPA, valproic acid] has what pEC50?
Completion: 4.41
